- measurementTarget: Nicotinic acetylcholine
- procedureText: Pharmacological screen, nicotinic acetylcholine receptor binding
- assayContext: Nicotinic acetylcholine
endpointName: IC50 (µM)
Give the value in µM but do not write µM after it.

IN: Look up IC50: CC(C(=O)c1cccc(Cl)c1)N(C)C(C)(C)C (racemic)
OUT: 71.6

###

- measurementTarget: Dopamine active transporter (DAT) (Homo sapiens, UniProt Q01959)
- Sequence (Q01959 whole entry): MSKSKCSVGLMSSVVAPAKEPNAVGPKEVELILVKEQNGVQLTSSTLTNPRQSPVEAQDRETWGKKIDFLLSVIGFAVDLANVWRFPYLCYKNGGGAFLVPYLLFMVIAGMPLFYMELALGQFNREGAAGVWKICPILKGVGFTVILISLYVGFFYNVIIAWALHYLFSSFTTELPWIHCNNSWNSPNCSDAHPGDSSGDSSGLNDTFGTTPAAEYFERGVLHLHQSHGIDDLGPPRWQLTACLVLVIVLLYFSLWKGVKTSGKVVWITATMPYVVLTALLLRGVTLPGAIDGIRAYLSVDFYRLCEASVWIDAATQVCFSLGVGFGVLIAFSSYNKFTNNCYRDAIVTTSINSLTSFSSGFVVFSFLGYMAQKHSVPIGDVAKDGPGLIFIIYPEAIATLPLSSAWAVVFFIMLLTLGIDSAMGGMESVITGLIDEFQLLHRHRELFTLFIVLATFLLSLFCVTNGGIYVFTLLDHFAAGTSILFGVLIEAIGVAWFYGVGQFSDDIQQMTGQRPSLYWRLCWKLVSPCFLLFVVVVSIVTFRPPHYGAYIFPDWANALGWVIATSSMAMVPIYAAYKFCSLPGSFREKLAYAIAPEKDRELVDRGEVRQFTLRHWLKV
endpointName: pIC50
Please note pIC50 is a logarithmic value: minus log10 of concentration in mol/L. Answer with that number alone.

IN: Item CC(C(=O)c1cccc(Cl)c1)N(C)C(C)(C)C (racemic) [Compound 4, Rac-N-methyl bupropion] has what recorded pIC50?
OUT: 5.43
